Every entry's value here was drawn from patent US20240294622A1.

Measured IC50, listed per entry.
Molecular target: T1, HGREM1-His (ACRO) (human, UniProt O60565 25-184)
T1 construct: Lys25-Asp184 of NP_037504 with C-terminal polyhistidine tag (ACRO GR1-H52H3); they are put here; also called hGREM1 (ACRO); human gremlin (ACRO)
T1 sequence: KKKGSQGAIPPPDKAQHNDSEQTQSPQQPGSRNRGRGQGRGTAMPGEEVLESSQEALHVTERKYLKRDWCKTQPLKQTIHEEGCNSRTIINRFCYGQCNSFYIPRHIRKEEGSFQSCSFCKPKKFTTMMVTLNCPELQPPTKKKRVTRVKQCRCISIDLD
Experiment: blocking ELISA, Human Gremlin-1 binding to BMP7; column Percentage
Answer in µg/mL, number only, no unit symbol.

Binder	IC50 / µg/mL
67G11 (antibody, V domains shown, mouse hybridoma antibody; also called hybridoma 67G11) VH: QVQLQQSGAELARPGASVKLSCKASGYTFTSYGIGWVKQRTGQGLEWIGEIYPRSGNTYNNEKFKGKATLTADKSSRTVYMELRSLISEDSAVYFCAREGYSNNYYAMDYWGQGTSVTVFS VL: DVLMTQTPLSLPVSLGDQASISCRSSQSLVHSNGNTYLEWYLQKPGQSPKLLIYKVSNRFSGVPDRLSGSGSGTDFTLKISRVEAEDLGVYYCFQGSHVPFTFGSGTKLEIK	0.848

input: Entry Hu14E3_HaLa (antibody, IgG1, V domains shown, humanized) VH: QVQLVQSGSELKKPGASVKVSCKASGYTFTTYGMAWMRQAPGQGLEWMGWINTLSGEPTYADDFKGRFVFSLDTSVSTAYLQISSLKAEDTAVYYCAREPMDYWGQGTMVTVSS VL: DVVMTQSPLSLPVTLGQPASISCKSSQSLLDSDGKTYLSWLQQRPGQSPRRLIYLVSKLDSGVPDRFSGSGSGTDFTLKISRVEAEDVGVYYCWQGAHFPLTFGQGTKLEIK has what IC50?
output: 0.611

input: Follow-up item: 42B9 (antibody, V domains shown, mouse hybridoma antibody; also called hybridoma 42B9) VH: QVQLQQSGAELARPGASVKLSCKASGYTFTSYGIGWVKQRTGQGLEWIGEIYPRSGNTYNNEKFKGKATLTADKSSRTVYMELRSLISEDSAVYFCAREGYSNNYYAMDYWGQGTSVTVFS VL: DVLMTQTPLSLPVSLGDQASISCISSQSLVHSNGNTYLEWYLQKPGLSPKLLIYKVSNRFSGVPDRLSGSGSGTDFTLRISRVEAEDLGVYYCFQGSHVPFTFGSGTKLEIK
output: 0.928

input: Follow-up item: 36F5 (antibody, V domains shown, mouse hybridoma antibody; also called hybridoma 36F5) VH: QVQLQQSGAELARPGASVKLSCKASGYSFTSSGIGWVKQRSGQGLEWIGEIYPRSGNTYNNEKFKGKATLTADKSSSTVYMELRSLTSEDSAVYFCVREAYSHHYYAMDYWGQGTSVTVFS VL: DVLMTQTPLSLPVSLGGQASISCRSSQSLLHSNGNTYLEWYLQKPGQSPKLLIYKVSNRFSGVPDRLSGSGSGTDFTLKISRVEAEDLGVYYCFQGSHVPFTFGSGTKLEIN
output: 0.683
